Reference source for all entries: patent US10723727B2

# tested system: tubulin/RB3-stathmin-like-domain (RB3-SLD-tdm) complex (Sus scrofa, UniProt P02550+P02554)
# Construct: purchased Cytoskeleton, Inc. T240; host or cells: RB3-SLD was made in house in E. coli
# assay info: Tubulin Peptide-Binding Site Competition Assay (fluorescence polarization)
# Set-up: species or system Porcine
# condition parameters: FP competition with BODIPY-labeled vinca peptide probe; read after five hours at 22° C.; read-out: Tubulin Peptide-Binding Site Competition Assay IC50
value type: IC50 (nM)
Numbers only, in nM.

CC[C@H](C)[C@H](NC(=O)[C@H]1CCCCN1C)C(=O)N(C)[C@H](C[C@@H](OC(C)=O)c1nc(C(=O)NN(Cc2ccccc2)CC(C)C(=O)O)cs1)C(C)C (some centres unmarked); 4.6

Go through the items and report each one's IC50.
1. CC[C@H](C)[C@H](NC(=O)[C@H]1CCCCN1C)C(=O)N(C)[C@H](C[C@@H](OC(C)=O)c1nc(C(=O)N[C@@H](Cc2ccccc2)CN2CCOCC2)cs1)C(C)C
2. CCOC(=O)[C@@H](C)C[C@H](Cc1ccccc1)NC(=O)c1csc([C@@H](C[C@H](C(C)C)N(C)C(=O)[C@@H](NC(=O)[C@@]2(C)CCCN2C)[C@@H](C)CC)OC(C)=O)n1
3. CC[C@H](C)[C@H](NC(=O)[C@@]1(C)CCCN1C)C(=O)N(C)[C@H](C[C@@H](OC(C)=O)c1nc(C(=O)NC2(c3ccccn3)CC2)cs1)C(C)C
4. CC[C@H](C)[C@H](NC(=O)[C@H]1CCCCN1C)C(=O)N(C)[C@H](C[C@@H](OC(C)=O)c1nc(C(=O)N[C@H](CNS(C)(=O)=O)Cc2ccccc2)cs1)C(C)C
5. CC[C@H](C)[C@H](NC(=O)[C@@]1(C)CCCN1C)C(=O)N(C)[C@H](C[C@@H](OC(C)=O)c1nc(C(=O)NCCN2CCCC2=O)cs1)C(C)C
6. CC[C@H](C)[C@H](NC(=O)[C@@]1(C)CCCN1C)C(=O)N(C)[C@H](C[C@@H](OC(C)=O)c1nc(C(=O)N[C@@H](Cc2ccccc2)C[C@H](C)C(=O)O)cs1)C(C)C

## Output
1. 2.4
2. 11.9
3. 105
4. 1.7
5. 85.5
6. 1.8

* * *

# tested system: tubulin/RB3-stathmin-like-domain (RB3-SLD-tdm) complex (Sus scrofa, UniProt P02550+P02554)
# Construct: purchased Cytoskeleton, Inc. T240; host or cells: RB3-SLD was made in house in E. coli
# assay info: Tubulin Peptide-Binding Site Competition Assay (fluorescence polarization)
# Parameters: species or system Porcine
value type: IC50 (nM)
One number for each entry, in nM.

## Input Please report the recorded IC50 for CC[C@H](C)[C@H](NC(=O)[C@H]1CCCCN1C)C(=O)N(C)[C@H](C[C@@H](OC(C)=O)c1nc(C(=O)N[C@@H](Cc2ccccc2)CC(C)P(=O)(O)O)cs1)C(C)C (stereo partly shown) .
## Output 4.4

* * *

# tested system: tubulin/RB3-stathmin-like-domain (RB3-SLD-tdm) complex (Sus scrofa, UniProt P02550+P02554)
# Construct: purchased Cytoskeleton, Inc. T240; host or cells: RB3-SLD was made in house in E. coli
# assay info: Tubulin Peptide-Binding Site Competition Assay (fluorescence polarization)
# Design: species or system Porcine
# condition parameters: FP competition with BODIPY-labeled vinca peptide probe; read after five hours at 22° C.; read-out: Tubulin Peptide-Binding Site Competition Assay IC50
value type: pIC50
Answers are plain numbers, as −log10 of the molar value.

Use the examples below as a reference point.
CC[C@H](C)[C@H](NC(=O)C12CCCC(CCC1)N2C)C(=O)N(C)[C@H](C[C@@H](OC(C)=O)c1nc(C(=O)N[C@@H](Cc2ccccc2)C[C@H](C)C(=O)OC)cs1)C(C)C; 7.98
CC[C@H](C)[C@H](NC(=O)[C@@]1(C)CCCN1C)C(=O)N(C)[C@H](C[C@@H](OC(C)=O)c1nc(C(=O)NCCCN2CCCC2=O)cs1)C(C)C; 7.29
CC[C@H](C)[C@H](NC(=O)[C@@]1(C)CCCN1C)C(=O)N(C)[C@H](C[C@@H](OC(C)=O)c1nc(C(=O)NC2(Cc3ccccc3)CCCCC2)cs1)C(C)C; 6.70
CC[C@H](C)[C@H](NC(=O)[C@@]1(C)CCCN1C)C(=O)N(C)[C@H](C[C@@H](OC(C)=O)c1nc(C(=O)NCCc2c[nH]cn2)cs1)C(C)C; 7.22
CCNC(=O)O[C@H](C[C@H](C(C)C)N(C)C(=O)[C@@H](NC(=O)[C@@]1(C)CCCN1C)[C@@H](C)CC)c1nc(C(=O)N[C@@H](Cc2ccc(N)cc2)C[C@H](C)C(=O)O)cs1; 8.72
CC[C@H](C)[C@H](NC(=O)[C@@]1(C)CCCN1C)C(=O)N(C)[C@H](C[C@@H](OC(=O)N(C)C)c1nc(C(=O)N[C@@H](Cc2ccc(N)cc2)C[C@H](C)C(=O)O)cs1)C(C)C; 8.51
CC[C@H](C)[C@H](NC(=O)[C@@]1(C)CCCN1C)C(=O)N(C)[C@H](C[C@@H](OC(C)=O)c1nc(C(=O)N[C@@H](Cc2ccccc2)C[C@H](C)C(=O)OC)cs1)C(C)C; 7.65
CC[C@H](C)[C@H](NC(=O)[C@@]1(C)CCCN1C)C(=O)N(C)[C@H](C[C@@H](OC(C)=O)c1nc(C(=O)NCCn2nnc3ccccc32)cs1)C(C)C; 8.07

Go through the items and report each one's pIC50.
1. CC[C@H](C)[C@H](NC(=O)[C@@]1(C)CCCN1C)C(=O)N(C)[C@H](C[C@@H](OC(C)=O)c1nc(C(=O)N[C@@H](Cc2ccccc2)c2nccs2)cs1)C(C)C
2. CC[C@H](C)[C@H](NC(=O)[C@]1(C)CCCN1C)C(=O)N(C)[C@H](C[C@@H](OC(C)=O)c1nc(C(=O)N[C@@H](Cc2ccccc2)C[C@H](C)C(=O)OC)cs1)C(C)C

## Output
8.03
7.04
